Would you mind telling me the reported activation of each entry?
- experimental.target: Cellular tumor antigen p53 (Homo sapiens)
- experiment.summary: Primary qHTS for small molecule compounds that upregulate eGFP-tagged delta133p53alpha (in N-terminal) cells. (AID 2060322);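 note: cells pre-induced with doxycycline then dosed without doxycycline; 0% = DMSO vehicle and 100% = reference activator; nearly all actives have a fitted effect of over 75% in size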
- conditions: NCI-H358 eGFP-delta133p53alpha fluorescence, 24 h; active compounds read high
Inconclusive results are not listed.
One number for each entry, in %.

Consider the following illustrative entries.
structure | activation (%)
Cc1nc(NC(=O)N2CCC[C@@H]2C(N)=O)sc1-c1ccnc(C(C)(C)C(F)(F)F)c1 | -9.38
O=C(O)c1cc(N(Cc2ccc(C3CCCCC3)cc2)C(=O)c2ccc(Oc3ccccc3)cc2)ccc1O | -2.86
COCCCN1CCC(NC(=O)c2cc(Cl)c(N)c3c2OCC3)CC1 | -6.16
CCOc1ccc(Cc2nccc3cc(OCC)c(OCC)cc23)cc1OCC | -22.6

Fill in: activation of C[C@@H](O[C@H]1OCCN(Cc2nn(P(=O)(O)O)c(=O)[nH]2)[C@H]1c1ccc(F)cc1)c1cc(C(F)(F)F)cc(C(F)(F)F)c1 is ___
10

###

- experiment.summary: BET inhibitor-based combinations targeting novel dependencies in MECOM-rearranged (r) AML: AML-191 cell line (AID 2202236; note: nearly all actives have a fitted effect of over 35% in size)
- conditions: AML-191 viability, CellTiter-Glo luminescence, 48 h; series mostly up to 46 µM
Records with an inconclusive call do not appear. Activity calls are given as the source filed them. Calls follow the shape of the dose curve; as a rule, active = well fitted inhibition curve with a large enough effect; inconclusive = small, poorly fitted or top-dose-only effect; inactive = flat fitted curve, though single readings scatter. Positions of bridges follow the written chain, without caps; N, C: chain ends. Non-standard residues stand in square brackets, D forms with d. Residues, ends and D or L forms follow the SMILES beside them. *: point of attachment. X1 = CCC(C)C(N)C1=NC(C(=O)*)CS1; dOrn = NCCC[C@@H](N)C(=O)O
Pick one and only one: 1 for active, 0 for inactive

Answered cases to consult:
molecule | class.label
CC[C@@H](C)Nc1cc(C(=O)NC2CC3CCC(C2)N3c2ccc(C(=O)C3CC3)cn2)c(C)cc1C(N)=O (some centres not stated) | 1
CO[C@@H](C)Cn1c(=O)n(C)c2cnc3ccc(-c4cncc(C(C)(C)O)c4)cc3c21 | 1

# lookup: test call for CCC(=O)N[C@H]1CC[C@H](C(=O)N(C)c2ccc(-c3nc4ccccc4o3)cc2)C1
1

// next record COc1cc(C(=O)NC2CCN(C)CC2)c(F)cc1Nc1ncc2c(n1)N(C1CCCC1)CC(F)(F)C(=O)N2C
1

Also CCC(C)C(N)C1=NC(C(=O)N[C@@H](CC(C)C)C(=O)N[C@H](CCC(=O)O)C(=O)N[C@H](C(=O)N[C@H]2CCCCNC(=O)[C@H](CC(N)=O)NC(=O)[C@@H](CC(=O)O)NC(=O)[C@H](Cc3cnc[nH]3)NC(=O)[C@@H](Cc3ccccc3)NC(=O)[C@H]([C@@H](C)CC)NC(=O)[C@@H](CCCN)NC2=O)[C@@H](C)CC)CS1 (some centres not stated) (X1-L[dE]IK[dOrn]I[dF]H[dD]N; lactam 4-C) ?
0

###

- experimental.target: Aldehyde dehydrogenase 1A1 (Homo sapiens) (UniProt P00352)
- experiment.summary: qHTS for Inhibitors of the Aldehyde Dehydrogenase Family (ALDH1A1) Confirmatory screens (AID 2061316); note: nearly all actives have a fitted effect of over 65% in size; note: potency is the fitted concentration of half-maximal effect
- conditions: ALDH inhibition qHTS; series mostly up to 47.3 µM
Inconclusive results are not listed. The source made the active and inactive calls. The call rests on the fitted dose curve; in most records, active means well fitted inhibition curve with a large enough effect; inconclusive means small, poorly fitted or top-dose-only effect; inactive means no such curve, though single readings can be large or run the other way.
measurement.name: Potency

Completed entries (count: 10):
compound | measurement.name | result.value
COc1ccnc(NC(=S)N2CCN(c3cccc(C(F)(F)F)c3)CC2)c1 | Potency | 10.1 µM (active)
O=C(Cn1nc(-c2ccc(F)cc2)ccc1=O)NCCc1ccccc1 | Potency | inactive
Cc1ccc(S(=O)(=O)c2ccc([N+](=O)[O-])o2)cc1 | Potency | 0.504 µM (active)
COc1ccc(OC)c(-c2nnc3n2N=C(c2ccc(OC)c(OCC4CC4)c2)CS3)c1 | Potency | 2.25 µM (active)
O=C(NCCN1CCN(c2cccc3ccc(O)cc23)CC1)c1ccc(F)cc1 | Potency | 10.1 µM (active)
[O-][n+]1onc(-c2ccccc2)c1/C=N/O | Potency | inactive
N#Cc1ccc(-c2ccc(CNc3ccc(N4CCN5CCCCC5C4)cc3)o2)cc1 (stereo not drawn) | Potency | 8.96 µM (active)
O=[N+]([O-])c1ccc(S(=O)(=O)c2ccc(Cl)cc2)nc1 | Potency | 0.283 µM (active)
CO[C@]1(NC(=O)CSC(F)F)C(=O)N2C(C(=O)O)=C(CSc3nnnn3CCO)CO[C@H]21 | Potency | 14.2 µM (active)
CCN1CCN(C(=O)N[C@@H](C(=O)N[C@@H]2C(=O)N3[C@@H]2SC(C)(C)[C@@H]3C(=O)O)c2ccccc2)C(=O)C1=O | Potency | inactive

Quick one: give me Potency for each item below, same order please.
1. COc1cccc(OC)c1C(=O)N[C@@H]1C(=O)N2[C@@H]1SC(C)(C)[C@@H]2C(=O)O
2. CC(C)(C)OC(=O)N1CCN(c2cccc(NCc3ccc(-c4ccc(C#N)cc4)o3)c2)CC1
3. COc1ccc(S(=O)(=O)N2CCN(C(=O)c3ccc([N+](=O)[O-])o3)CC2)cc1
4. Cc1ccc(S(=O)(=O)c2ccc([N+](=O)[O-])cn2)cc1
5. COc1ccc(C(=O)N(Cc2ccco2)Cc2cccs2)c(O)c1
6. N#CSc1cc(SC#N)c(N)nc1N
7. FC(F)(F)c1cc(N2CCN(C(=S)Nc3cc(Cl)ccn3)CC2)cc(C(F)(F)F)c1

1: inactive; 2: 7.12 µM (active); 3: 10 µM (active); 4: 0.634 µM (active); 5: 12.7 µM (active); 6: 0.896 µM (active); 7: 22.5 µM (active)

Batch request: Potency for each of the following compounds.
1. O=C(NCC(=O)N1CCCC1)Nc1ccc2ccccc2c1
2. Cc1cc(N2C(=O)c3ccccc3C2=O)n[nH]1
3. O=C(CSc1nnc(-c2cccc(S(=O)(=O)N3CCCC3)c2)n1-c1ccccc1)Nc1ccc(F)cc1
4. CN1CCN(CC(=O)N2c3ccccc3C(=O)Nc3cccnc32)CC1

1. 7.98 µM (active)
2. inactive
3. inactive
4. inactive

Field: Potency. Fill in for each record below.
1. CC(=O)Nc1ccc(OC2=NS(=O)(=O)c3ccccc32)cc1
2. c1cncc(-c2ccc(CNc3nc(C4CCCC4)nc4ccccc34)cc2)c1
3. O=C(NNc1ccccc1)c1ccncc1

["inactive", "inactive", "inactive"]
